Tested on: Escherichia coli NCTC 8196
method.summary: MIC value in microtitre plates (optical density)
Type: cell-based
condition.summary: microtitre plate, CASO bouillon, 48 hours at 37° C., optical density 620 nm, ≦20% growth; some data indicative values
measure.name: MIC values E. coli

Study these solved cases before continuing.
Report MIC values E. coli for Oc1ccccc1/C=C/c1ccccc1 [Comp. of formula 113] please. 100 ppm

Report MIC values E. coli for COc1cc(/C=C/c2ccc(Cl)cc2)ccc1O [Comp. of formula 123] please. >100 ppm

Report MIC values E. coli for COc1cc(/C=C/c2cccc3ccccc23)ccc1O [Comp. of formula 160] please. >100 ppm

Report MIC values E. coli for COc1cc(/C=C/c2ccc(Cl)cc2)cc(O)c1OC [Comp. of formula 126] please. >100 ppm

---
Report MIC values E. coli for COc1ccc(/C=C/c2ccc(C)cc2)cc1O [Comp. of formula 182] please. >100 ppm

Report MIC values E. coli for Oc1ccc(/C=C/c2cccc3ccccc23)cc1 [Comp. of formula 156] please. 60 ppm

Report MIC values E. coli for COc1ccc(/C=C/c2cccc3ccccc23)cc1O [Comp. of formula 158] please. >100 ppm

Report MIC values E. coli for Oc1ccccc1/C=C/c1cccc2ccccc12 [Comp. of formula 162] please. 30 ppm

Report MIC values E. coli for CCOc1cc(/C=C/c2ccc(Cl)cc2)ccc1O [Comp. of formula 122] please. >100 ppm

----------
MIC values P. aeruginosa values, listed per item
Tested on: Pseudomonas aeruginosa CIP A-22
method.summary: MIC value in microtitre plates (optical density)
Assay type: cell-based
condition.summary: microtitre plate, CASO bouillon, 48 hours at 37° C., optical density 620 nm, ≦20% growth; some data indicative values

Study these solved cases before continuing.
Report MIC values P. aeruginosa for COc1cc(/C=C/c2ccc(Cl)cc2)cc(O)c1OC [Comp. of formula 126] please. >100 ppm

Report MIC values P. aeruginosa for COc1cc(/C=C/c2cccc3ccccc23)cc(O)c1OC [Comp. of formula 163] please. >100 ppm

Report MIC values P. aeruginosa for COc1ccc(/C=C/c2ccc(O)cc2)cc1 [Comp. of formula 131] please. >100 ppm

Report MIC values P. aeruginosa for COc1ccc(/C=C/c2cccc(O)c2)cc1 [Comp. of formula 132] please. >100 ppm

---
Report MIC values P. aeruginosa for Oc1ccc(/C=C/c2ccccc2)cc1 [Comp. of formula 107] please. >100 ppm

Report MIC values P. aeruginosa for COc1ccc(/C=C/c2cc(O)c(OC)c(OC)c2)cc1 [Comp. of formula 138] please. >100 ppm

Report MIC values P. aeruginosa for COc1cc(/C=C/c2ccc(C)cc2)cc(O)c1OC [Comp. of formula 187] please. >100 ppm

Report MIC values P. aeruginosa for COc1cc(/C=C/c2ccccc2)cc(O)c1OC [Comp. of formula 114] please. >100 ppm

Report MIC values P. aeruginosa for Oc1ccc(/C=C/c2ccc(-c3ccccc3)cc2)cc1 [Comp. of formula 143] please. >100 ppm

Report MIC values P. aeruginosa for COc1cc(/C=C/c2ccccc2)ccc1O [Comp. of formula 111] please. >100 ppm

Report MIC values P. aeruginosa for COc1cc(/C=C/c2cccc3ccccc23)ccc1O [Comp. of formula 160] please. >100 ppm

----------
System: Pseudomonas aeruginosa CIP A-22
method.summary: MIC value in microtitre plates (optical density)
Assay type: cell-based
condition.summary: microtitre plate, CASO bouillon, 48 hours at 37° C., optical density 620 nm, ≦20% growth; some data indicative values
measure.name: MIC values P. aeruginosa

Study these solved cases before continuing.
Report MIC values P. aeruginosa for Cc1ccc(/C=C/c2cccc(C)c2O)cc1 please. >100 ppm

Report MIC values P. aeruginosa for Oc1cccc(/C=C/c2ccc(Cl)cc2)c1 please. >100 ppm

Report MIC values P. aeruginosa for COc1cc(/C=C/c2ccccc2C)cc(O)c1OC please. 100 ppm

Report MIC values P. aeruginosa for CCOc1cc(/C=C/c2ccc(OC)cc2)ccc1O please. >100 ppm

---
Report MIC values P. aeruginosa for COc1ccc(/C=C/c2cccc(C)c2O)cc1 please. >100 ppm

Report MIC values P. aeruginosa for Cc1ccc(/C=C/c2ccc(O)cc2)cc1 please. >100 ppm

Report MIC values P. aeruginosa for Cc1ccc(/C=C/c2ccccc2O)cc1 please. 100 ppm

Report MIC values P. aeruginosa for Cc1ccccc1/C=C/c1cccc(C)c1O please. >100 ppm

Report MIC values P. aeruginosa for Oc1ccccc1/C=C/c1ccc(Cl)cc1 please. 100 ppm
